Biological target: BiP ATPase domain (residues 28–405), His6-tag removed (human, UniProt P11021 28-405)
Sequence (P11021 28-405): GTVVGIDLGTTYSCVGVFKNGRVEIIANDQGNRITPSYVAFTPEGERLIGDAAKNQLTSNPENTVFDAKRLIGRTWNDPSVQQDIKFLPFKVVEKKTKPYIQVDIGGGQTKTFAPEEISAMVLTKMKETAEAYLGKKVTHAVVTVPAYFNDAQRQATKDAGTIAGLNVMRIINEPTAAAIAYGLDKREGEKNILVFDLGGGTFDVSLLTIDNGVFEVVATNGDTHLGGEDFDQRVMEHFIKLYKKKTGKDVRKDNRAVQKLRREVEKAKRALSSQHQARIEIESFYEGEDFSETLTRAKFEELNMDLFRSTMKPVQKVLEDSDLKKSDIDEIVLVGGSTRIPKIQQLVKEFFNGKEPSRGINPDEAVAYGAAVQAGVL
Experiment: MST
MEASUREMENT_NAME: Kd (µM)
Give just the numeric value; µM need not be written.

Here are 2 binders together with their reported answers.
Ire1 luminal domain region II–IV (residues 32–390) (domain or fragment) LLFVSTLDGSLHAVSKRTGSIKWTLKEDPVLQVPTHVEEPAFLPDPNDGSLYTLGSKNNEGLTKLPFTIPELVQASPCRSSDGILYMGKKQDIWYVIDLLTGEKQQTLSSAFADSLCPSTSLLYLGRTEYTITMYDTKTRELRWNATYFDYAASLPEDDVDYKMSHFVSNGDGLVVTVDSESGDVLWIQNYASPVVAFYVWQREGLRKVMHINVAVETLRYLTFMSGEVGRITKWKYPFPKETEAKSKLTPTLYVGKYSTSLYASPSMVHEGVAVVPRGSTLPLLEGPQTDGVTIGDKGECVITPSTDVKFDPGLKSKNKLNYLRNYWLLIGHHETPLSASTKMLERFPNNLPKHRENV ... 1.55
Perk luminal domain region I–IV (residues 54–403) (domain or fragment) TSATRVPAAGAVAAAEVTVEDAEALPAAAGEQEPRGPEPDDETELRPRGRSLVIISTLDGRIAALDPENHGKKQWDLDVGSGSLVSSSLSKPEVFGNKMIIPSLDGALFQWDQDRESMETVPFTVESLLESSYKFGDDVVLVGGKSLTTYGLSAYSGKVRYICSALGCRQWDSDEMEQEEDILLLQRTQKTVRAVGPRSGNEKWNFSVGHFELRYIPDMETRAGFIESTFKPNENTEESKIISDVEEQEAAIMDIVIKVSVADWKVMAFSKKGGHLEWEYQFCTPIASAWLLKDGKVIPISLFDDTSYTSNDDVLEDEEDIVEAARGATENSVYLGMYRGQLYLQSSVRI ... 2.35

*Q* What Kd value was documented for this binder, Perk luminal domain region II–IV (printed residues 54–403) (domain or fragment) LVIISTLDGRIAALDPENHGKKQWDLDVGSGSLVSSSLSKPEVFGNKMIIPSLDGALFQWDQDRESMETVPFTVESLLESSYKFGDDVVLVGGKSLTTYGLSAYSGKVRYICSALGCRQWDSDEMEQEEDILLLQRTQKTVRAVGPRSGNEKWNFSVGHFELRYIPDMETRAGFIESTFKPNENTEESKIISDVEEQEAAIMDIVIKVSVADWKVMAFSKKGGHLEWEYQFCTPIASAWLLKDGKVIPISLFDDTSYTSNDDVLEDEEDIVEAARGATENSVYLGMYRGQLYLQSSVRI ?
*A* 2.28
